# method notes: qHTS Assay for Lipid Storage Modulators (AID 1519)
# test conditions: Drosophila S3 cells, BODIPY lipid droplet/cell ratio, laser cytometry; measured here: lipid channel max response; cells loaded with oleic acid
Results filed as inconclusive are left out.

- compound: "Cc1cc(/C=C\\c2ccc3cc(N(C)C)ccc3[n+]2C)c(C)n1-c1ccccc1"
  max response [%]: -18.2
- compound: "O=c1ccc2ccc(O)cc2o1"
  max response [%]: 19.2
- compound: "CNc1ncnc2ccc(-c3cccc(NS(C)(=O)=O)c3)cc12"
  max response [%]: -9.46
- compound: "Cc1noc(C)c1C(=O)N1CCC[C@@]2(CCN(C(=O)Nc3ccccc3)C2)C1"
  max response [%]: 7.38
- compound: "COC(=O)CC1C2(C)CC34OC5(C)O[C@@]6(C7/C(=C(/OC)C(C)C)C(=O)OC(c8ccoc8)[C@@]7(C)C(OC(=O)C(C)C)C(OC)[C@]6(O5)[C@@]13C)C(OC)[C@]4(OC)C2OC(C)=O (stereo partly drawn)"
  max response [%]: -14.4
- compound: "COCCn1c(=O)c(-c2ccc(OC)cc2)nc2cnc(N3CCN(C)CC3)nc21"
  max response [%]: 21
- compound: "COc1ccc(CNc2ncncc2-c2ccccc2Cl)c(OC)c1"
  max response [%]: 2.12
- compound: "COc1ccc(-c2cc(=O)c3c(OC)c(OC)c(OC)c(OC)c3o2)cc1"
  max response [%]: -24.9
- compound: "O=S(=O)(c1ccccc1)N1CCC2(CCN(Cc3nccs3)CC2)CC1"
  max response [%]: 7.01
- compound: "COc1ccc2c(c1)OCC(Cc1ccc(OC)c(OC(C)=O)c1)C2=O (stereo not drawn)"
  max response [%]: -2.44
- compound: "CC(=O)NC(C(=O)O)C(C)(C)SN=O (stereo not drawn)"
  max response [%]: 9
- compound: "COc1ccc(-c2nc3cnc(OC)nc3n(-c3ccc(OC)cc3)c2=O)cc1"
  max response [%]: 4.55
- compound: "CN(Cc1ccco1)c1nc(-c2ccccc2Cl)nc2ccccc12"
  max response [%]: 24.3
- compound: "COCC(=O)N1CCC2(CC1)CN(c1cccc(-c3ccccc3)c1)C2"
  max response [%]: 0.928
- compound: "CC(=O)N1CCC[C@@]2(CCN(Cc3ccc(C#N)cc3)C2)C1"
  max response [%]: 8.41
- compound: "COCC(=O)N1CCC[C@@]2(CCN(C(c3ccccc3)c3ccccc3)C2)C1"
  max response [%]: -21.2
- compound: "Cc1ccccc1-c1cncnc1N1CCNCC1"
  max response [%]: 18.8
- compound: "COc1ccccc1CN1CC[C@@]2(CCCN(C(=O)c3ccco3)C2)C1"
  max response [%]: 8.6
- compound: "NC(Cc1c[nH]c2ccccc12)C(=O)O (stereo not drawn)"
  max response [%]: 44.9
- compound: "CC(C)N1CCN(c2ccc(OC[C@@H]3CO[C@@](Cn4cncn4)(c4ccc(Cl)cc4Cl)O3)cc2)CC1"
  max response [%]: -3.7
- compound: "CC(=O)N(CC(O)CN(C(C)=O)c1c(I)c(C(=O)NC[C@@H](O)CO)c(I)c(C(=O)NC[C@@H](O)CO)c1I)c1c(I)c(C(=O)NC[C@@H](O)CO)c(I)c(C(=O)NC[C@@H](O)CO)c1I"
  max response [%]: -18.3
- compound: "C[C@@]12CC[C@@H]3c4ccc(O)cc4CC[C@H]3[C@H]1CC[C@H]2O"
  max response [%]: -11.1
- compound: "Cc1ccccc1-c1nc(NCc2cccnc2)c2ccccc2n1"
  max response [%]: -4.19
- compound: "CC(=O)N1CCC[C@@]2(CCN(Cc3nccs3)C2)C1"
  max response [%]: 26.9
- compound: "N#Cc1ccc(CN2CCC3(CCNCC3)CC2)cc1"
  max response [%]: 14.9
- compound: "CN(C)Cc1ccccc1-c1cc(NCc2cccs2)ncn1"
  max response [%]: 25.3
- compound: "Cc1cccc(CNc2nc(-c3c(C)noc3C)nc3ccccc23)c1"
  max response [%]: 4.27
- compound: "CN(Cc1ccco1)c1ccnc(-c2cccc(NS(C)(=O)=O)c2)n1"
  max response [%]: 26.7
- compound: "O=C(c1ccncc1)N1CCC2(CCCN(c3ccccc3)C2)CC1"
  max response [%]: 17.5
- compound: "COc1cccc(-c2nc(N3CCNCC3)c3ccccc3n2)c1"
  max response [%]: -11.1
- compound: "COc1ccccc1CNc1ncncc1-c1ccc(N(C)C)cc1"
  max response [%]: -7.14
- compound: "N#Cc1cccc(NC(=O)N2CC3(CCN(C(=O)c4cc(C(F)(F)F)cc(C(F)(F)F)c4)CC3)C2)c1"
  max response [%]: 14.4
- compound: "N#Cc1ccc(CN2CCCC3(CCN(C(=O)c4csnn4)CC3)C2)cc1"
  max response [%]: -8.04
- compound: "Cc1cnc(CNc2ncnc3ccc(-c4ccccc4C(F)(F)F)cc23)cn1"
  max response [%]: 7.96
- compound: "C[C@@H](CN(C)C)CN1c2ccccc2CCc2ccccc21"
  max response [%]: -16.4
- compound: "Cn1cccc1C(=O)N1CCC2(CCN(Cc3ccncc3)CC2)CC1"
  max response [%]: 3.28
- compound: "O=S(=O)(c1ccccc1)N1CCC2(CCN(Cc3ccccc3)CC2)CC1"
  max response [%]: 22.9
- compound: "O=c1c(-c2cc(F)cc(F)c2)nc2cncnc2n1Cc1ccc(F)cc1"
  max response [%]: -11
- compound: "CC(=O)NCCNc1nc(-c2ccccc2CN(C)C)nc2ccccc12"
  max response [%]: 18.7
- compound: "COCC(=O)N1CCC2(CC1)CN(Cc1nccs1)C2"
  max response [%]: 13.5
- compound: "O=c1c(-c2cccs2)nc2cnc(Oc3cccc(Cl)c3)nc2n1C1CC1"
  max response [%]: -23.3
- compound: "O=S(=O)(c1ccccc1)N1CCC[C@@]2(CCN(c3ncccn3)C2)C1"
  max response [%]: 13
- compound: "C[C@@H](COc1ccccc1)N(CCCl)Cc1ccccc1"
  max response [%]: -6.85
